Target: CpLIP2 lipase (Candida parapsilosis)
Sequence (Q8NIN8 entry or part of it): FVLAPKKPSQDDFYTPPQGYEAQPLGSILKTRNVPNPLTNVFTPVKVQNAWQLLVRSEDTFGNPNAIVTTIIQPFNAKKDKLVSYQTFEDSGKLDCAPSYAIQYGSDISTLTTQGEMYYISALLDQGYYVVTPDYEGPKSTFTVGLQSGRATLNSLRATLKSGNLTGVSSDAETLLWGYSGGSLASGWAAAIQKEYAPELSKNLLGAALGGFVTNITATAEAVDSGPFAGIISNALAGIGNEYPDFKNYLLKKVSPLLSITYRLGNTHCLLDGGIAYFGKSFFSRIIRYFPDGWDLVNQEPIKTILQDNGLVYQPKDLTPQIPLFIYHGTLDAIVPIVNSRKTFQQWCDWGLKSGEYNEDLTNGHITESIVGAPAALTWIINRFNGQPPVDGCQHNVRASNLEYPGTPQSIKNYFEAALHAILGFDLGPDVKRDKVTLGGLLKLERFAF
Test: Quenching of CpLIP2 intrinsic tryptophan fluorescence by flavonols (Stern–Volmer, Lehrer, van't Hoff analysis)
Format: binding
Settings: 328 K; Lehrer equation
Property Name: KSV (accessible), Stern–Volmer quenching constant of the exposed W residues

[
  {
    "Structure": "O=c1c(O)c(-c2ccccc2)oc2cc(O)cc(O)c12",
    "Readout Value": "420000 L/mol"
  },
  {
    "Structure": "O=c1c(O)c(-c2cc(O)c(O)c(O)c2)oc2cc(O)cc(O)c12",
    "Readout Value": "250000 L/mol"
  },
  {
    "Structure": "O=c1c(O)c(-c2ccc(O)c(O)c2)oc2cc(O)cc(O)c12",
    "Readout Value": "50000 L/mol"
  }
]

Task: Bench note: what KSV (accessible), Stern–Volmer quenching constant of the exposed W residues did `O=c1c(O)c(-c2ccc(O)cc2)oc2cc(O)cc(O)c12` show?
Output: 150000 L/mol
